# experimental_system: Voltage-gated inwardly rectifying potassium channel KCNH2 (Homo sapiens)
# Sequence (Q12809 whole entry): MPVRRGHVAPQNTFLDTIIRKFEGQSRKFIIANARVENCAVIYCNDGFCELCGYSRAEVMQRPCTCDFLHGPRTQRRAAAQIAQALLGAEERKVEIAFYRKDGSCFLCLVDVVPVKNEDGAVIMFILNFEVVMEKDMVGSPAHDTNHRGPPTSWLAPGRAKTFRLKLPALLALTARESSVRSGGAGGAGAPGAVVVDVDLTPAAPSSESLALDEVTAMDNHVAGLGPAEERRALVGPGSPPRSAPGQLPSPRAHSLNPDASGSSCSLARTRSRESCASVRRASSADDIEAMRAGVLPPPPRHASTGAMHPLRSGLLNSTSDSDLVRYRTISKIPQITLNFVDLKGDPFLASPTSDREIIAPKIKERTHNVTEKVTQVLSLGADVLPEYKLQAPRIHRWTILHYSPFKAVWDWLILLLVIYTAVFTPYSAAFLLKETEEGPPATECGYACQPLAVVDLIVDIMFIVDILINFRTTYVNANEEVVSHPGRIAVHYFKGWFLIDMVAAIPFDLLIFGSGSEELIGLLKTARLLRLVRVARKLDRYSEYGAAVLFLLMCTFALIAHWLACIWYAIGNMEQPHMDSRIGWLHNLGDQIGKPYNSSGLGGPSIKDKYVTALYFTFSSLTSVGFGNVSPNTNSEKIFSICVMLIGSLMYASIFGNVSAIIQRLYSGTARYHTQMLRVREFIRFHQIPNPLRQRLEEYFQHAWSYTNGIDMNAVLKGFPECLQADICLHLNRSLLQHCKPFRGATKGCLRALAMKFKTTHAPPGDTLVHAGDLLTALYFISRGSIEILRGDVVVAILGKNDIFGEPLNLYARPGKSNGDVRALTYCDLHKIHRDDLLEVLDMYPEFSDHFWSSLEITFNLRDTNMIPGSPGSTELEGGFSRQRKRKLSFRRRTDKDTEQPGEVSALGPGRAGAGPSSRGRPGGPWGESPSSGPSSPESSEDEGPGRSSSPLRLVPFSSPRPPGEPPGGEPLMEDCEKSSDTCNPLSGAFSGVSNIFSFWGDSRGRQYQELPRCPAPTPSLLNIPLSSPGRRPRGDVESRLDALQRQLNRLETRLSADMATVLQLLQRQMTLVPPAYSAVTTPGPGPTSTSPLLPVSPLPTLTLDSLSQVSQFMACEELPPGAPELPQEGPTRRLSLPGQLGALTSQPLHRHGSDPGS
measure_name: IC50

Input: Can you look up the measured IC50 of COc1ccc(C(=O)NC(=O)Nc2ccc3c(c2)NC(=O)/C3=C\c2[nH]c(C)c(C(=O)NCCN3CCCC3)c2C)c(F)c1 for me?
Output: 9.67 µM

---

# Tested on: MV4-11
# assay_remarks: Cytotoxicity against human MV4-11 cells assessed as cell viability after 48 hrs by MTT assay
# Format: functional, cell-based
# assay_setup: Homo sapiens, MV4-11, 48 h
pIC50: −log10 of the molar value.
pIC50 vs 7: at or above is condition met, below is condition not met.

Input: Decide: is the reported value of pIC50 for COc1ccc(C(=O)NC(=O)Nc2ccc3c(c2)NC(=O)/C3=C/c2ccncc2)cc1 equal to or greater than 7?
Output: condition not met

Input: Can COc1ccc(C(=O)NC(=O)Nc2cccc3c2NC(=O)/C3=C\c2ccc[nH]2)cc1 be said to have pIC50 at or above 7?
Output: condition not met

Input: Kindly determine if pIC50 recorded for COc1ccc(C(=O)NC(=O)Nc2ccc3c(c2)NC(=O)/C3=C\c2[nH]c(C)c(CCC(=O)N3CCN(C)CC3)c2C)c(F)c1 is above or exactly 7.
Output: condition met

Input: Assess whether reported pIC50 for CCOC(=O)CCc1c(C)[nH]c(/C=C2\C(=O)Nc3cc(NC(=O)NC(=O)c4ccc(OC)cc4F)ccc32)c1C sits at 7 or higher.
Output: condition met

Input: Does the compound COc1ccc(C(=O)NC(=O)Nc2ccc3c(c2)NC(=O)/C3=C\c2[nH]c(C)c(C(=O)NCCN3CCCC3)c2C)c(F)c1 have recorded pIC50 that is 7 or more?
Output: condition met

Input: In plain terms: is recorded pIC50 at least 7 for COc1ccc(C(=O)NC(=O)Nc2cc3c(cc2F)/C(=C/c2[nH]c(C)c(C(=O)O)c2C)C(=O)N3)c(F)c1 ?
Output: condition met

Input: Is pIC50 at least 7? Consider O=C(NC(=O)c1ccccc1F)Nc1ccc2c(c1)NC(=O)/C2=C\c1ccc[nH]1
Output: condition not met

Input: Check this compound for pIC50 at or above 7: COc1ccc(C(=O)NC(=O)Nc2ccc3c(c2)NC(=O)/C3=C/c2ccc(N(C)C)cc2)cc1
Output: condition met

Input: Answer whether pIC50 of COc1ccc(C(=O)NC(=O)Nc2ccc3c(c2)NC(=O)/C3=C\c2[nH]c(C)c(CCC(=O)O)c2C)c(F)c1 is greater than or equal to 7.
Output: condition met

Input: Assess whether reported pIC50 for CCN(CC)CCNC(=O)c1c(C)[nH]c(/C=C2\C(=O)Nc3ccc(F)cc32)c1C sits at 7 or higher.
Output: condition met

Input: Tell me whether pIC50 is at least 7 here: COc1ccc(C(=O)NC(=O)Nc2cc3c(cc2F)/C(=C/c2[nH]c(C)c(CCC(=O)O)c2C)C(=O)N3)c(F)c1
Output: condition met

Input: Has COc1ccc(C(=O)NC(=O)Nc2ccc3c(c2)NC(=O)/C3=C/c2ccccn2)cc1 a recorded pIC50 greater than or equal to 7?
Output: condition not met

Input: API: above_or_equal(metric=pIC50, cutoff=7) for item COc1ccc(C(=O)NC(=O)Nc2ccc3c(c2)NC(=O)/C3=C/c2ccco2)cc1
Output: condition not met

Input: Evaluate O=C(NC(=O)c1ccc(C(F)(F)F)cc1)Nc1ccc2c(c1)NC(=O)/C2=C\c1ccc[nH]1 : pIC50 at minimum 7?
Output: condition not met

Input: Does the compound COc1ccc(C(=O)NC(=O)Nc2ccc3c(c2)NC(=O)/C3=C/c2ccc(O)cc2)cc1 have recorded pIC50 that is 7 or more?
Output: condition not met

Input: Is the recorded value of pIC50 equal to or greater than 7 for this compound? COc1ccc(C(=O)NC(=O)Nc2ccc3c(c2)NC(=O)/C3=C/c2cccc(C(=O)O)c2)cc1
Output: condition not met

---

# experimental_system: Cytochrome P450 2D6 (Homo sapiens, UniProt P10635)
# Sequence (P10635 whole entry): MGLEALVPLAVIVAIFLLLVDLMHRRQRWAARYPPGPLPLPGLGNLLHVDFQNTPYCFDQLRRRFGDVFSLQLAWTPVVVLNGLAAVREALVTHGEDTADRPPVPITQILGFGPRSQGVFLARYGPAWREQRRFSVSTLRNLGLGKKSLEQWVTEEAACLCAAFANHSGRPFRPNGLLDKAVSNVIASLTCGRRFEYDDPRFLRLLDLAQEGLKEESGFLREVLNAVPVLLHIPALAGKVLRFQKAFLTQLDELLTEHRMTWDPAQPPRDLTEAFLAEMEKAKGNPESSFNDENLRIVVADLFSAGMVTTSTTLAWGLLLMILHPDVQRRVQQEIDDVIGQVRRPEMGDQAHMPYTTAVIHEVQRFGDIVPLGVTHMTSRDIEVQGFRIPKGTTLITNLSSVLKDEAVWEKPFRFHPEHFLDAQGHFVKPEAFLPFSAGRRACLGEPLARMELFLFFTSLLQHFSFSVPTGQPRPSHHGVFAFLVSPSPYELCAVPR
measure_name: IC50

Input: What value of measured IC50 is listed for COc1ccc(C(=O)NC(=O)Nc2ccc3c(c2)NC(=O)/C3=C\c2[nH]c(C)c(C(=O)NCCN3CCCC3)c2C)c(F)c1 ?
Output: > 10 µM

---

# experimental_system: Mast/stem cell growth factor receptor Kit (Homo sapiens, UniProt P10721)
# Sequence (P10721 whole entry): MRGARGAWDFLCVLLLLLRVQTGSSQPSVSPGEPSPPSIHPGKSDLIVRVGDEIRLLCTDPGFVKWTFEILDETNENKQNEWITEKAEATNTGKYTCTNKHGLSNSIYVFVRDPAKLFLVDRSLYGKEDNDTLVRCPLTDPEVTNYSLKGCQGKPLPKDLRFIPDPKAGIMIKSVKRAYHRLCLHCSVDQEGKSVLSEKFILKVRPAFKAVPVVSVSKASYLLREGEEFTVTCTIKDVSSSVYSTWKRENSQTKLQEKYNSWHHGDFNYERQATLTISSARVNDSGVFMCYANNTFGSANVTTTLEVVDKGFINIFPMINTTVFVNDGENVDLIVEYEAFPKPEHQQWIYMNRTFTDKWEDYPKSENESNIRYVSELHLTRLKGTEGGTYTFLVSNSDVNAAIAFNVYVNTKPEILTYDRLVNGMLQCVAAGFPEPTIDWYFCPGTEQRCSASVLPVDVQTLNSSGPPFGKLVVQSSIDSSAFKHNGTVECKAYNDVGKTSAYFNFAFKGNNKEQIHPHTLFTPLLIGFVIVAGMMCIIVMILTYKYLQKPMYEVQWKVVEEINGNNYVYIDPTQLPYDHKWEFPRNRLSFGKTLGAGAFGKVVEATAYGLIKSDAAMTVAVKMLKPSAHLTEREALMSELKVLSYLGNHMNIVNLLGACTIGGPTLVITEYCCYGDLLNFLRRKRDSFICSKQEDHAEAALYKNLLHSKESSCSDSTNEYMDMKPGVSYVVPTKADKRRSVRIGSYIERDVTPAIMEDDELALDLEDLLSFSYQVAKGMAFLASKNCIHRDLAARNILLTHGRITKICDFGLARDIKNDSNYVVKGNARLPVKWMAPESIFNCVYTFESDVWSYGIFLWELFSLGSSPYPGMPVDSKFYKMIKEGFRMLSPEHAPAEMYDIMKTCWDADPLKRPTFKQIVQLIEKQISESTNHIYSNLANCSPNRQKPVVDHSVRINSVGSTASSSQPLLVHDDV
measure_name: IC50
Include the unit right after the number.

Input: Requested read-out IC50, target or system Mast/stem cell growth factor receptor Kit (Homo sapiens, UniProt P10721), entry COc1ccc(C(=O)NC(=O)Nc2ccc3c(c2)NC(=O)/C3=C\c2[nH]c(C)c(C(=O)NCCN3CCCC3)c2C)c(F)c1
Output: 14 nM

---

# assay_remarks: Toxicity in BALB/c AnN.Cg-Foxnlnu/CrlNarl mouse xenografted with human MOLM13 cells at 10 mg/kg, ip administered qd for 16 days
# Format: organism-based, MOLM-13
# Parameters: dose 10 mg/kg, route intraperitoneal
# assay_setup: in vivo
measure_name: LD50 at 384 h

Input: Reported LD50 at 384 h for COc1ccc(C(=O)NC(=O)Nc2ccc3c(c2)NC(=O)/C3=C\c2[nH]c(C)c(C(=O)NCCN3CCCC3)c2C)c(F)c1 : what is it?
Output: > 20 mg/kg

---

# assay_remarks: Tmax in BALB/c mouse at 10 mg/kg, po
# Format: ADME, organism-based
# Set-up: dose 10 mg/kg, route oral
# assay_setup: in vivo
measure_name: Tmax (h)
Numbers only, in h.

Input: // Tmax lookup, key: COc1ccc(C(=O)NC(=O)Nc2ccc3c(c2)NC(=O)/C3=C\c2[nH]c(C)c(C(=O)NCCN3CCCC3)c2C)c(F)c1
Output: 1.7

---

# Tested on: MV4-11
# assay_remarks: Cytotoxicity against human MV4-11 cells assessed as cell viability after 48 hrs by MTT assay
# Format: functional, cell-based
# assay_setup: Homo sapiens, MV4-11, 48 h
measure_name: IC50 (nM)
One number for each entry, in nM.

[
  {
    "smiles_text": "COc1ccc(C(=O)NC(=O)Nc2cccc3c2/C(=C/c2ccc[nH]2)C(=O)N3)cc1",
    "result_units": "nM",
    "IC50": 357
  },
  {
    "smiles_text": "COc1ccc(/C=C2/C(=O)Nc3cc(NC(=O)NC(=O)c4ccc(OC)cc4)ccc32)cc1",
    "result_units": "nM",
    "IC50": 228
  }
]

Input: Given the entry COc1ccc(C(=O)NC(=O)Nc2cc3c(cc2F)/C(=C/c2[nH]c(C)c(C(=O)O)c2C)C(=O)N3)cc1 , report its measured IC50.
Output: 34.6

---

# experimental_system: Tyrosine-protein kinase Lck (Homo sapiens)
# Sequence (P06239 whole entry): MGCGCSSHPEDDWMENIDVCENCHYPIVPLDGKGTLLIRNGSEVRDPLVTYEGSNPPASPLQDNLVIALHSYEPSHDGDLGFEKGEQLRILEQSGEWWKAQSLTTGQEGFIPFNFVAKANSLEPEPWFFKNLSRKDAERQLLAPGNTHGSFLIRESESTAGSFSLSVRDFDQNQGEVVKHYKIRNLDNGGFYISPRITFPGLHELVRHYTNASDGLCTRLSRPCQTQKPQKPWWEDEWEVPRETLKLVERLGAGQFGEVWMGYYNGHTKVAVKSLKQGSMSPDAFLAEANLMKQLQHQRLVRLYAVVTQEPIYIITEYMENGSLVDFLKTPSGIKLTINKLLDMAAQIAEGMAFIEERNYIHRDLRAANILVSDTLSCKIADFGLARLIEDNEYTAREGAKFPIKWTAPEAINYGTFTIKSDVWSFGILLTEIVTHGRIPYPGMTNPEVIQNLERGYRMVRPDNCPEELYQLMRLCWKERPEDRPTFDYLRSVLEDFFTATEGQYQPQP
measure_name: pIC50
Numbers only, as −log10 of the molar value.

Input: // pIC50 lookup, key: COc1ccc(C(=O)NC(=O)Nc2ccc3c(c2)NC(=O)/C3=C\c2[nH]c(C)c(C(=O)NCCN3CCCC3)c2C)c(F)c1
Output: 8.64

---

# assay_remarks: Oral bioavailability in BALB/c mouse at 10 mg/kg
# Format: ADME, organism-based
# assay_setup: in vivo
measure_name: bioavailability (%)
Numbers only, in %.

Input: Report bioavailability for COc1ccc(C(=O)NC(=O)Nc2ccc3c(c2)NC(=O)/C3=C\c2[nH]c(C)c(C(=O)NCCN3CCCC3)c2C)c(F)c1 please.
Output: 2.6

---

# assay_remarks: Permeability coefficient of the compound at pH 7.4 by PAMPA-GIT assay
# Format: ADME
# assay_setup: read-out: Peff
Returns True if the recorded Papp is greater than or equal to 0.7 ×10⁻⁶ cm/s, and False otherwise.

Consider the following illustrative entries.
[
  {
    "smiles_text": "COc1ccc(C(=O)NC(=O)Nc2ccc3c(c2)NC(=O)/C3=C\\c2[nH]c(C)c(C(=O)O)c2C)cc1",
    "label_class": "False"
  },
  {
    "smiles_text": "COc1ccc(C(=O)NC(=O)Nc2cc3c(cc2F)/C(=C/c2[nH]c(C)c(C(=O)O)c2C)C(=O)N3)cc1",
    "label_class": "True"
  },
  {
    "smiles_text": "COc1ccc(C(=O)NC(=O)Nc2ccc3c(c2)NC(=O)/C3=C\\c2[nH]c(C)c(C(=O)O)c2C)c(F)c1",
    "label_class": "True"
  },
  {
    "smiles_text": "COc1ccc(C(=O)NC(=O)Nc2ccc3c(c2)NC(=O)/C3=C\\c2ccc[nH]2)cc1",
    "label_class": "False"
  }
]

We next turn to a different compound, shown below.
Input: Say whether COc1ccc(C(=O)NC(=O)Nc2ccc3c(c2)NC(=O)/C3=C\c2[nH]c(C)c(C(=O)NCCN3CCCC3)c2C)c(F)c1 shows Papp of 0.7 ×10⁻⁶ cm/s or more.
Output: True

Ref: ChEMBL document CHEMBL3351479
